Data origin, for the record: PubChem BioAssay AID1963980

# Test system: 475296-252-R-J1-PDC spheroid viability;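 further: spheroids exposed to agents for seven days before readout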
# experimentalDetails: Anticancer human tumor 475296-252-R-J1-PDC patient-derived rectal carcinoma cell line growth inhibition [PI3K]
# assayContext: second compound 1 µM; first compound 10 µM; stronger effect = lower value; spheroids with HUVEC and MSC
# Text: Combinatorial screen of targeted agents with the PI3K inhibitors inavolisib, alpelisib, duvelisib, and copanlisib in multi-cell type tumor spheroids A high-throughput screen of multi-cell type tumor spheroids was designed to identify active combinations of targeted small molecules and PI3K pathway inhibitors. […] Compounds. […] If the clinical Cmax for an agent had not been determined, the highest concentration tested was 10 microM. […]
Reported viability, T/C values for the following compounds.
Provide the reading as a plain figure in %.

For reference, reported viability, T/C for C#Cc1c(F)ccc2cc(O)cc(-c3ncc4c(N5CC6CCC(C5)N6)nc(OCC56CCCN5CC(F)C6)nc4c3F)c12 (stereo unspecified) + CC(Nc1ncnc2nc[nH]c12)c1cc2cccc(Cl)c2c(=O)n1-c1ccccc1 stands at 43.8

Recorded result, Cn1ncc(Cl)c1-c1cc(C(=O)NC(CN)Cc2cccc(F)c2)sc1Cl (stereo unspecified) + COc1c(OCCCN2CCOCC2)ccc2c3n(c(=NC(=O)c4cnc(N)nc4)nc12)CCN3 , viability, T/C: 16.4

Summary for this compound, CC(C)NCC(C(=O)N1CCN(c2ncnc3c2C(C)CC3O)CC1)c1ccc(Cl)cc1 (stereo unspecified) + CC(Nc1ccc2c(c1)OCCn1cc(N3C(=O)OCC3C(F)F)nc1-2)C(N)=O : viability, T/C is 67.8

Form field viability, T/C, entry CC1(C)CCC(Nc2ncc(C(F)(F)F)c(-c3c[nH]c4c(P(C)(C)=O)c(C#N)ccc34)n2)CN1 (stereo unspecified) + CC(Nc1ncnc2nc[nH]c12)c1cc2cccc(Cl)c2c(=O)n1-c1ccccc1 : 54.1

More entries:
Looking up C[C@@H](NC(=O)c1ncnc(N)c1Cl)c1ncc(C(=O)Nc2cc(C(F)(F)F)c(Cl)cn2)s1 + CC(Nc1ccc2c(c1)OCCn1cc(N3C(=O)OCC3C(F)F)nc1-2)C(N)=O , I see its viability, T/C listed as 63.6

Lab book: viability, T/C of C=CC(=O)N1CCN(c2nc(=O)n(-c3c(C)ccnc3C(C)C)c3nc(-c4c(O)cccc4F)c(F)cc23)C(C)C1 (stereo unspecified) + CC(Nc1ncnc2nc[nH]c12)c1cc2cccc(Cl)c2c(=O)n1-c1ccccc1 noted as 93.5

viability, T/C reading for CC(C)NCC(C(=O)N1CCN(c2ncnc3c2C(C)CC3O)CC1)c1ccc(Cl)cc1 (stereo unspecified) + Cc1nc(NC(=O)N2CCCC2C(N)=O)sc1-c1ccnc(C(C)(C)C(F)(F)F)c1 : 58.7

The compound identified as C[C@@H](NC(=O)c1ncnc(N)c1Cl)c1ncc(C(=O)Nc2cc(C(F)(F)F)c(Cl)cn2)s1 + Cc1nc(NC(=O)N2CCCC2C(N)=O)sc1-c1ccnc(C(C)(C)C(F)(F)F)c1 registered its viability, T/C at 63
